assay-summary: Metabolic stability in liver microsomes, MLM
recorded-conditions: 1 μM, NADPH
Structures can show the parent of a compound that is named as a salt.
Response field label: string, one of y (Metabolic stability MLM % remaining in 30 min strictly below 70%) or n.

Lookup: # TODO verify Metabolic stability MLM % remaining in 30 min < 70% strictly for this compound: O=C(NO)c1ccc2c(c1)CN(C(=O)CNC1CC1c1ccc(F)cc1)CC2 (stereo not drawn) [Example 104, TFA Salt]
Found: n

Lookup: # TODO verify Metabolic stability MLM % remaining in 30 min < 70% strictly for this compound: O=C(NO)c1cnc(N2CCC(NC3CC3c3ccc(-c4ccc(Cl)cc4)cc3)CC2)nc1 (stereo not drawn) [Example 13, TFA Salt]
Found: y

Lookup: # TODO verify Metabolic stability MLM % remaining in 30 min < 70% strictly for this compound: O=C(NO)c1ccc(CCCN2CCC(CNC3CC3c3cccc(F)c3)CC2)cc1 (stereo not drawn) [Example 49, TFA Salt]
Found: y

Lookup: # TODO verify Metabolic stability MLM % remaining in 30 min < 70% strictly for this compound: O=C(NO)c1cnc(N2CCn3cc(CNC4CC4c4ccc(F)cc4)nc3C2)nc1 (stereo not drawn) [Example 25, TFA Salt]
Found: n

Lookup: # TODO verify Metabolic stability MLM % remaining in 30 min < 70% strictly for this compound: O=C(CCCCCCNC(=O)c1ccc(CNC2CC2c2ccc(F)cc2)cc1)NO (stereo not drawn) [Example 32, TFA Salt]
Found: y

Lookup: # TODO verify Metabolic stability MLM % remaining in 30 min < 70% strictly for this compound: O=C(NO)c1ccc(/C=C/C(=O)N2CC(CNC3CC3c3ccc(F)cc3)C2)cc1 (stereo not drawn) [Example 118, TFA Salt]
Found: n

Lookup: # TODO verify Metabolic stability MLM % remaining in 30 min < 70% strictly for this compound: O=C(NO)c1cnc(N2CCC(NC3CC3c3ccccc3)CC2)nc1 (stereo not drawn) [Example 9, TFA Salt]
Found: y

Lookup: # TODO verify Metabolic stability MLM % remaining in 30 min < 70% strictly for this compound: O=C(NO)c1ccc(OCCCN2CCC(CNC3CC3c3ccccc3)CC2)cc1 (stereo not drawn) [Example 100, TFA Salt]
Found: y

Lookup: # TODO verify Metabolic stability MLM % remaining in 30 min < 70% strictly for this compound: Nc1ccccc1NC(=O)c1ccc(CN2CCC(CNC3CC3c3ccc(-c4cncnc4)cc3)CC2)cc1 (stereo not drawn) [Example 144, TFA Salt]
Found: y

Lookup: # TODO verify Metabolic stability MLM % remaining in 30 min < 70% strictly for this compound: O=C(NO)c1ccc(CCCN2CCC(CNC3CC3c3ccccc3)CC2)cc1 (stereo not drawn) [Example 43, TFA Salt]
Found: y

Lookup: # TODO verify Metabolic stability MLM % remaining in 30 min < 70% strictly for this compound: COc1ccc(C2CC2NCc2cn3c(n2)CN(c2ncc(C(=O)NO)cn2)CC3)cc1 (stereo not drawn) [Example 24, TFA Salt]
Found: n

Lookup: # TODO verify Metabolic stability MLM % remaining in 30 min < 70% strictly for this compound: O=C(NO)c1cnc(N2CCC(CNC3CC3c3ccc(-c4cncnc4)cc3)CC2)nc1 (stereo not drawn) [Example 17, TFA Salt]
Found: y

Lookup: # TODO verify Metabolic stability MLM % remaining in 30 min < 70% strictly for this compound: Cc1noc(C)c1-c1ccc(C2CC2NCC2CCN(CCCc3ccc(C(=O)NO)cc3)CC2)cc1.O=C(O)C(F)(F)F (stereo not drawn)
Found: n

Lookup: # TODO verify Metabolic stability MLM % remaining in 30 min < 70% strictly for this compound: Nc1ccccc1NC(=O)c1ccc(CCCn2cnc(CNC3CC3c3ccc(F)c(F)c3)c2)cc1 (stereo not drawn) [Example 135, TFA Salt]
Found: y

Lookup: # TODO verify Metabolic stability MLM % remaining in 30 min < 70% strictly for this compound: Cc1noc(C)c1-c1ccc(C2CC2NCC2CCN(Cc3ccc(C(=O)NO)cn3)CC2)cc1 (stereo not drawn) [Example 39, TFA Salt]
Found: n

Lookup: # TODO verify Metabolic stability MLM % remaining in 30 min < 70% strictly for this compound: O=C(/C=C/c1ccc(CNC2CC2c2ccc(F)cc2)cc1)NO (stereo not drawn) [Example 2, TFA Salt]
Found: y

Lookup: # TODO verify Metabolic stability MLM % remaining in 30 min < 70% strictly for this compound: O=C(NO)c1ccc(/C=C/C(=O)N2CCC(CN[C@H]3C[C@@H]3c3ccc(F)cc3)CC2)cc1 [Example 115, TFA Salt]
Found: y

Lookup: # TODO verify Metabolic stability MLM % remaining in 30 min < 70% strictly for this compound: O=C(NO)c1ccc(N2CCC(CNC3CC3c3ccc(F)cc3)CC2)cc1 (stereo not drawn) [Example 22, TFA Salt]
Found: y

Lookup: # TODO verify Metabolic stability MLM % remaining in 30 min < 70% strictly for this compound: Cn1cc(-c2ccc(C3CC3NCC3CCN(Cc4ccc(C(=O)Nc5ccccc5N)cc4)CC3)cc2)cn1 (stereo not drawn) [Example 142, TFA Salt]
Found: y

Lookup: # TODO verify Metabolic stability MLM % remaining in 30 min < 70% strictly for this compound: O=C(NO)c1ccc(OCCN2CCC(CNC3CC3c3ccc(F)cc3)CC2)nc1 (stereo not drawn) [Example 96, TFA Salt]
Found: n

Lookup: # TODO verify Metabolic stability MLM % remaining in 30 min < 70% strictly for this compound: O=C(NO)c1ccc(CCCN2CCC(CNC3CC3c3ccc(-c4ccc(C(F)(F)F)nc4)cc3)CC2)cc1 (stereo not drawn) [Example 66, TFA Salt]
Found: n

Lookup: # TODO verify Metabolic stability MLM % remaining in 30 min < 70% strictly for this compound: O=C(NO)c1cnc(N2CCC(CNC3CC3c3ccc(-c4ccc(Cl)cc4)cc3)CC2)nc1 (stereo not drawn) [Example 14, TFA Salt]
Found: n

Lookup: # TODO verify Metabolic stability MLM % remaining in 30 min < 70% strictly for this compound: O=C(NO)c1ccc(CCCN2CCC(CNC3CC3c3ccc(-c4ccc(Cl)cc4)cc3)CC2)cc1 (stereo not drawn) [Example 56, TFA Salt]
Found: n

Lookup: # TODO verify Metabolic stability MLM % remaining in 30 min < 70% strictly for this compound: O=C(NO)c1ccc(CS(=O)(=O)NCCN2CCC(CNC3CC3c3ccccc3)CC2)cc1 (stereo not drawn) [Example 86, TFA Salt]
Found: y

Lookup: # TODO verify Metabolic stability MLM % remaining in 30 min < 70% strictly for this compound: O=C(NO)c1ccc(CCC(=O)N2CCC(NC3CC3c3ccccc3)CC2)cc1 (stereo not drawn) [Example 83, TFA Salt]
Found: n

* * *

assay-summary: Metabolic stability in liver microsomes, MLM
recorded-conditions: 1 μM, NADPH
Structures can show the parent of a compound that is named as a salt.
Please go through the items and note down their Metabolic stability MLM % remaining in 30 min.
Please give a number only; it is taken to be in %.

Lookup: # Metabolic stability MLM % remaining in 30 min lookup, item O=C(NO)c1ccc(CCCNC2CC2c2ccc(F)cc2)cc1 (stereo not shown) [Example 30, TFA Salt]
Found: 51

Lookup: # Metabolic stability MLM % remaining in 30 min lookup, item Nc1ccccc1NC(=O)c1ccc(CCCN2CCC(CNC3CC3c3ccc(F)c(F)c3)CC2)cc1 (stereo not shown) [Example 124, TFA Salt]
Found: 68

Lookup: # Metabolic stability MLM % remaining in 30 min lookup, item COc1ccc(C2CC2NCC2CCN(CCCc3ccc(C(=O)Nc4ccccc4N)cc3)CC2)cc1 (stereo not shown) [Example 123, TFA Salt]
Found: 72

Lookup: # Metabolic stability MLM % remaining in 30 min lookup, item O=C(NO)c1ccc(CCCn2cnc(CNC3CC3c3ccc(F)c(F)c3)c2)cc1 (stereo not shown) [Example 73, TFA Salt]
Found: 53

Lookup: # Metabolic stability MLM % remaining in 30 min lookup, item N#Cc1ccc(-c2ccc(C3CC3NCC3CCN(CCCc4ccc(C(=O)NO)cc4)CC3)cc2)cc1 (stereo not shown) [Example 59, TFA Salt]
Found: 75

Lookup: # Metabolic stability MLM % remaining in 30 min lookup, item O=C(NO)c1ccc2c(c1)CN(C(=O)CN[C@@H]1C[C@H]1c1ccc(F)cc1)CC2 [Example 104B, TFA Salt]
Found: 70

Lookup: # Metabolic stability MLM % remaining in 30 min lookup, item Nc1ccccc1NC(=O)c1ccc(CCCn2cnc(CNC3CC3c3ccccc3)c2)cc1 (stereo not shown) [Example 136, TFA Salt]
Found: 3

Lookup: # Metabolic stability MLM % remaining in 30 min lookup, item O=C(NO)c1ccc(CCCN2CCC(CNC3CC3c3ccc(F)cc3)CC2)cc1 (stereo not shown) [Example 47, TFA Salt]
Found: 66

Lookup: # Metabolic stability MLM % remaining in 30 min lookup, item O=C(CCCCCCNC(=O)c1ccc(CNC2CC2c2ccccc2)cc1)NO (stereo not shown) [Example 31, TFA Salt]
Found: 18

Lookup: # Metabolic stability MLM % remaining in 30 min lookup, item Nc1ccccc1NC(=O)c1ccc(CCCN2CCC(CNC3CC3c3ccccc3)CC2)cc1 (stereo not shown) [Example 121, TFA Salt]
Found: 42

Lookup: # Metabolic stability MLM % remaining in 30 min lookup, item O=C(NO)c1cc2c(s1)CCN(C(=O)CN[C@@H]1C[C@H]1c1ccc(F)cc1)C2 [Example 103A, TFA Salt]
Found: 68

Lookup: # Metabolic stability MLM % remaining in 30 min lookup, item O=C(NO)c1ccc(C(=O)NCCN2CCC(CNC3CC3c3ccc(F)c(F)c3)CC2)cc1 (stereo not shown) [Example 90, TFA Salt]
Found: 93

Value source: patent US11352322B2
